- test system: hAM1R (human, UniProt Q16602)
- assay name: cell-based or functional assay
Bridge positions count the residues as written; N and C are the ends. Square brackets hold non-standard residues; d marks the D form. Ends that are not written are not given here. Hyp = O=C(O)[C@@H]1C[C@@H](O)CN1; Cit = NC(=O)NCCC[C@H](N)C(=O)O
attribute measured: hAM1R EC50 (cAMP) (nM)
Give the number; nM is assumed, so skip it.

Below, each entry is followed by its recorded hAM1R EC50 (cAMP) result.
binder	attribute measured	scale unit	experimental result
GCRFGTCTVQRLAHQIYQFTDKDKDNVAPRTNISPQGY [SEQ ID NO: 140]	hAM1R EC50 (cAMP)	nM	31.4
GCRFGTCTVQRLAHQIYQFTDKDKDNVAPRSKIGPQGY [SEQ ID NO: 387]	hAM1R EC50 (cAMP)	nM	0.992
GCRFGTCTVQ[Cit]LAHQIYQFTDKDKDNVAPRTNIGPQG[Hyp]-NH2 (disulfide 2-7 (inferred); ends not checked) [SEQ ID NO: 260]	hAM1R EC50 (cAMP)	nM	4160

// next item, hAM1R EC50 (cAMP) requested
Measured hAM1R EC50 (cAMP), GCRFATCTVQRLAHFLYQFTDKDKDNVAPRTKVGPQGY [SEQ ID NO: 377] : 0.243
